# Test system: 843126-344-R-J1-PDC complex spheroid viability;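 note: spheroids exposed to drugs for seven days before readout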
# ASSAY_SUMMARY: Anticancer human tumor 843126-344-R-J1-PDC patient-derived melanoma cell line growth inhibition [POLQ]
# CONDITION: second compound 10 µM; first compound 0.00316 µM; hits give low values
Catalogue of viability, T/C readings, one per entry.

>  <COMPOUND>
CCc1c2c(nc3ccc(O)cc13)-c1cc3c(c(=O)n1C2)COC(=O)[C@]3(O)CC + Nc1ccc(C#CCN(C(=O)Cc2ncc(C(F)(F)F)cc2C(F)(F)F)c2ccc(F)cc2)nn1

>  <viability, T/C [%]>
67.7

$$$$
>  <COMPOUND>
CC[C@@]1(O)C(=O)OCc2c1cc1n(c2=O)Cc2cc3c(CN(C)C)c(O)ccc3nc2-1 + COC1C(OC(N)=O)C(O)C(Oc2ccc3c(O)c(NC(=O)c4ccc(O)c(CC=C(C)C)c4)c(=O)oc3c2C)OC1(C)C

>  <viability, T/C [%]>
110

$$$$
>  <COMPOUND>
C=CCn1c(=O)c2cnc(Nc3ccc(N4CCN(C)CC4)cc3)nc2n1-c1cccc(C(C)(C)O)n1 + Cc1cccc(N(C)C(=O)C2C(O)CCN2c2nc(C)cc(C(F)(F)F)c2C#N)c1

>  <viability, T/C [%]>
105

$$$$
>  <COMPOUND>
Cn1ncnc1[C@H]1c2n[nH]c(=O)c3cc(F)cc(c23)N[C@@H]1c1ccc(F)cc1 + Cc1cccc(N(C)C(=O)C2C(O)CCN2c2nc(C)cc(C(F)(F)F)c2C#N)c1

>  <viability, T/C [%]>
84.2

$$$$
>  <COMPOUND>
COc1cccc(OCCCN)c1-c1cc(Nc2cnc(C#N)cn2)n[nH]1 + Cc1cccc(N(C)C(=O)C2C(O)CCN2c2nc(C)cc(C(F)(F)F)c2C#N)c1

>  <viability, T/C [%]>
108

$$$$

Data credit: PubChem BioAssay AID1963837
